# key: entry, value: TGI
test system: SK-OV-3 ovarian; assay: NCI tumour cell line growth inhibition, 48 h

Record excerpt, results attached:
INSERT INTO results (compound, assay_target, measurement) VALUES
  ('COC(=O)C(=O)C(C(C)=O)C(=O)C(=O)Nc1ccc(C)cc1C (configuration not stated)', 'SK-OV-3 ovarian', '> 100 µM'),
  ('COC(=O)/C(=N\N)C(C(=O)C(=O)Nc1nc(=S)[nH][nH]1)c1nc2ccc([N+](=O)[O-])cc2[nH]c1=O (configuration not stated)', 'SK-OV-3 ovarian', '> 100 µM'),
  ('CCOC(=O)c1cc(C(=O)c2cc(OC)c(OC)c(OC)c2)n2ccc(-c3cc[n+](CC(=O)c4cc(OC)c(OC)c(OC)c4)cc3)cc12', 'SK-OV-3 ovarian', '47.1 µM');

Problem: State its TGI on SK-OV-3 ovarian: COc1cccc(/C=C/C(=O)N2CC(CCl)c3c2cc(N)c2ccccc32)c1 (configuration not stated)
Solution: 1.16 µM

Problem: So what TGI did CCOc1nc2sc3c(c2c(=O)n1CCSSCCn1c(OCC)nc2sc4c(c2c1=O)CCCC4)CCCC3 get with SK-OV-3 ovarian?
Solution: > 100 µM

Problem: Given the entry CC(C)(C)OC(=O)C1/C(=C/CBr)CN1C(=O)OC(C)(C)C (configuration not stated) , what TGI was observed with SK-OV-3 ovarian?
Solution: 38.2 µM

Problem: Lab note: need TGI with SK-OV-3 ovarian for entry CC[C@]1(Cc2ccc(OC)c(OC)c2)C=[N+]([O-])O[C@H](OCc2ccccc2)[C@@H]1OC(C)=O , please look it up.
Solution: > 100 µM

Problem: Lab request: please report TGI under test system SK-OV-3 ovarian for CNC(=O)NCCN1N=C(C)/C(=C\c2ccccc2)CC1=O
Solution: > 100 µM

Problem: Missing value: TGI, SK-OV-3 ovarian, entry COc1cc2c(cc1OC)[C@H]1C(COC(=O)Nc3ccccc3)CN1CC2 (some centres not stated) . Fill in?
Solution: > 100 µM

Problem: What is its TGI for SK-OV-3 ovarian? Entry: CCCC(C(=O)Nc1cccc2[nH]cnc12)C(=O)OCC (configuration not stated)
Solution: > 100 µM

Problem: Provide value of TGI for this record tested with SK-OV-3 ovarian: C1=Cc2cccc3occ(c23)C=C1
Solution: > 100 µM

Problem: Request - read-out TGI | tested on SK-OV-3 ovarian | compound CC1(C)CCC[C@@]2(C)C1CC[C@@]1(CO1)[C@@H]2/C=C\C(C=O)CC=O (some centres not stated)
Solution: > 100 µM

----------
system: IGROV1 ovarian; experiment: NCI tumour cell line growth inhibition, 48 h
Each item that follows carries a reported TGI.

INSERT INTO assay_data (molecule, measurement) VALUES
  ('CC(=O)[CH-]C(=O)c1ccccc1.CC(=O)[CH-]C(=O)c1ccccc1.CC(=O)[CH-]C(=O)c1ccccc1.[Br-].[Zr+4]', '> 100 µM'),
  ('NC(=O)c1ncn2c(=O)n(CCCl)nnc12', '482 µM');

Problem: Give the reported TGI for NCCCNc1nc2ccccc2c2c(=O)c3cc(F)cc(Cl)c3sc12 (system: IGROV1 ovarian).
Solution: 3.12 µM

Problem: What value of TGI on IGROV1 ovarian does CCOc1nc2sc3c(c2c(=O)n1CCSSCCn1c(OCC)nc2sc4c(c2c1=O)CCCC4)CCCC3 have?
Solution: > 100 µM

Problem: Item: CC(C)(C)OC(=O)N1Cc2cc3ccccc3nc2C1CO (centres undefined) Test system: IGROV1 ovarian Read-out: TGI Value: ?
Solution: > 100 µM

Problem: Give IGROV1 ovarian TGI for O=c1[nH]c(=O)n(C2CC(O)C(COP(=O)(OCC(Cl)(Cl)Cl)OCC(Cl)(Cl)Cl)O2)cc1F (centres undefined)
Solution: > 100 µM

Problem: Any idea what TGI came out for Oc1cc(O)c2c(c1)OC(c1ccc(O)c(O)c1)C(O)C2c1c(O)cc(O)c2c1OC(c1ccc(O)c(O)c1)C(O)C2 (centres undefined) on IGROV1 ovarian?
Solution: > 100 µM

Problem: Please provide the recorded TGI for Clc1ccc(N2N=C(c3cccc(Nc4ccncc4)c3)CC2c2ccc(Br)cc2)cc1 (centres undefined) , tested on IGROV1 ovarian.
Solution: 3.41 µM

Problem: Record lookup: for IGROV1 ovarian, what TGI belongs to Cc1ccc(S(=O)(=O)NNC(=O)Nc2ccc([N+](=O)[O-])cc2)cc1 ?
Solution: > 100 µM

----------
Parameter: TGI. Scope: all listed entries.
test system: HCT-15 colon; test: NCI tumour cell line growth inhibition, 48 h

Worked examples, 2 compounds total:
INSERT INTO results (compound, measurement) VALUES
  ('CC1OC(CC2C=CCc3c(O)c4c(c(O)c32)C(=O)c2ccccc2C4=O)CC(NC(=O)C(F)(F)F)C1O (configuration not stated)', '55.9 µM'),
  ('NC(=O)NC(=O)c1cccc(NC(=O)CCl)c1', '9.73 µM');

Now take the following compound into account.
Problem: # get_value(readout='TGI', item= CC(=N/NC(N)=S)/C(C)=N/NC(N)=S )
Solution: > 100 µM

----------
Recorded TGI for the following molecules
tested on: HOP-92 NSCLC; test: NCI tumour cell line growth inhibition, 48 h
The reply should be a number in µM, with the unit left off.

INSERT INTO results (molecule, unit_abbrev, measurement) VALUES
  ('O=S(=O)(CF)OCCCCOS(=O)(=O)CF', 'µM', 82.6),
  ('CCCCC[C@H]1C/C=C2/C(=O)C(Cl)=C[C@@H]2C/C=C\CCCC(=O)O1', 'µM', 1.38),
  ('C(=C\c1ccc(OCC2CO2)cc1)/C1=NCOC1 (configuration not stated)', 'µM', 13.2);

Problem: Suppose we examine the molecule CCCCNCCCCCNc1cc(OC)cc2cccnc12 ; what TGI value has been reported?
Solution: 23

Problem: So what does the record say about TGI for C[C@@H](Oc1cc(-c2cnn(C3CCNCC3)c2)cnc1N)c1c(Cl)cc(F)cc1Cl ?
Solution: 3.6

Problem: Need TGI, item CCCCCCCCCCCCCCCCCCOCC(O)CO (configuration not stated)
Solution: 24.7

Problem: Endpoint output: TGI of S=C1Cc2c(-c3ccccc3)cc(-c3ccc(Cl)cc3)nc2-c2ccccc2N1 . Value?
Solution: 3.53

Problem: State the recorded TGI for this entry: COc1cc(-c2ccccc2)cn2c1nc1ccccc12
Solution: 32

Problem: TGI for CCOC(OC1=C(C#N)CCCC1)C(CC)[Se]c1ccccc1[N+](=O)[O-] (configuration not stated) ?
Solution: 40.6

Problem: What does the data say about its TGI? Entry: O=C1c2ccccc2C(=O)c2sc(Nc3ccc([N+](=O)[O-])cc3)nc21
Solution: 28.6

Problem: Quick one: TGI of CC(=O)[CH-]C(=O)c1ccccc1.CC(=O)[CH-]C(=O)c1ccccc1.CC(=O)[CH-]C(=O)c1ccccc1.[Br-].[Zr+4] ?
Solution: 61.4

Problem: Need TGI of Cc1ccc2c(c1)C(O)(c1ccccc1)CCS2 (configuration not stated) , thanks.
Solution: 77.9

Problem: Sample CSc1cc(C(C)(C)C)ccc1C(O)c1ccc(C(C)(C)C)cc1SC — what was its TGI?
Solution: 28.9

Problem: Given the molecule C=CCN1C(=O)[C@]2(SC1=S)[C@H](c1cccc(Cl)c1)CN(C)[C@]21C(=O)NC2C=CC(Cl)=C[C@H]21 (some centres not stated) , what is its reported TGI?
Solution: 14.9

Problem: Name the reported TGI value associated with the molecule NC(=O)c1ncn2c(=O)n(CCCl)nnc12
Solution: 408

Problem: Give its TGI value. Item: Oc1ccc(/C=N/NC(=S)Nc2cccnc2)nc1
Solution: 59.6

----------
Items are presented alongside their recorded TGI.
system: NCI-H23 lung; assay: NCI tumour cell line growth inhibition, 48 h

Problem: # TGI lookup, item CC(=O)/C=C/c1ccc(N(CCO)Cc2ccc(C(C)(C)C)cc2)cc1
Solution: 235 µM

----------
test system: MCF7 breast; assay: NCI tumour cell line growth inhibition, 48 h
Catalogue of TGI readings, one per entry.

Consider the worked cases shown below.
INSERT INTO assay_data (structure_notation, measurement) VALUES
  ('NS(=O)(=O)c1cc(C(=O)O)c(Cl)c([N+](=O)[O-])c1Cl', '> 100 µM'),
  ('S=C1Cc2c(-c3ccccc3)cc(-c3ccc(Cl)cc3)nc2-c2ccccc2N1', '> 72.6 µM'),
  ('O=C(O)c1cc(Cl)cc(Cc2cc(Cl)cc(C(=O)O)c2O)c1O', '> 100 µM'),
  ('COC(=O)[C@H](C)N(C)C(=O)[C@H](C)N1[C@@H](c2ccccc2)COC1(C)C', '> 100 µM'),
  ('CCOC(=O)c1cc2c(n1Cc1cc(OC)cc(OC)c1)-c1oncc1CC2', '> 100 µM');

Note: attention shifts to another entry.
Problem: For the molecule CC(=N/NC(N)=S)/C(C)=N/NC(N)=S , what TGI is on record?
Solution: > 100 µM

These data points were gathered from PubChem BioAssay (NCI).
